Reference for the values: patent US20210155689A1

Target: T1, human LAG-3 on cells (HEK293-hLAG-3 stable cell line) (human, UniProt P18627 23-525)
T1 sequence: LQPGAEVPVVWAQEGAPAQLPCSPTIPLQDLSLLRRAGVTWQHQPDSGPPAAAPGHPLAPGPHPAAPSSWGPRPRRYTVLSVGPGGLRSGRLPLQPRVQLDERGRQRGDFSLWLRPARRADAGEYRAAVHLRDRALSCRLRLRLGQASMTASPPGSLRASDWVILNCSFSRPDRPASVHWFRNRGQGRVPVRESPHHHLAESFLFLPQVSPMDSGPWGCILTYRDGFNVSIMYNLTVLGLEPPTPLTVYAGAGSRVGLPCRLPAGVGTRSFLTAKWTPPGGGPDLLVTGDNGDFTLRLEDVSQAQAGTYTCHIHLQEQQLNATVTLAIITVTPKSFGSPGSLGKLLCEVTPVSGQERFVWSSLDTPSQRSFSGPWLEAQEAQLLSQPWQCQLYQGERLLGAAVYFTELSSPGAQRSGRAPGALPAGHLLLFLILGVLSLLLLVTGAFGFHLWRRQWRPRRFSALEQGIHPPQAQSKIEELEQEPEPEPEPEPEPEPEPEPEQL
Experiment: FACS, HEK293-hLAG-3, antibody 0.32 nM
OUTCOME_MEASURE: Mean fluorescence intensity
Lab note: write the figure by itself, no unit.

INSERT INTO results (binder, measurement) VALUES
  ('556F6B8-11 humanized antibody (antibody, V domains shown) VH: QVQLQESGPGLVKPSETLSLTCTVSGFSLIKYGVHWIRQPPGKGLEWIGVIWRGGITDYNAAFMSRVTISKDTSKSQVSLKLSSVTAADTAVYYCARWDGPLAMDYWGQGTTVTVSS VL: DIVLTQSPSFLSASVGDRVTITCKASQDVGTTVAWYQQKPGKSPKLLIYWASTRHTGVPSRFSGSGSGTEFTLTISSLQPEDFATYYCQQYSSYPYTFGQGTKLEIK', 51),
  ('556F6B8-6 humanized antibody (antibody, V domains shown) VH: QVQLQESGPGLVKPSETLSLTCTVSGFSIIKYGVHWIRQPPGKGLEWIGVIWRGGITDYNAAFMSRVTISVDTSKNQFSLKLSSVTAADTAVYYCARWDGPLAMDYWGQGTTVTVSS VL: DIVLTQSPSFLSASVGDRVTITCKASQDVGTTVAWYQQKPGKAPKLLIYWASTRHTGVPSRFSGSGSGTEFTLTISSLQPEDFATYYCQQYSSYPYTFGQGTKLEIK', 10);

Item 556F6B8-2 humanized antibody (antibody, V domains shown) VH: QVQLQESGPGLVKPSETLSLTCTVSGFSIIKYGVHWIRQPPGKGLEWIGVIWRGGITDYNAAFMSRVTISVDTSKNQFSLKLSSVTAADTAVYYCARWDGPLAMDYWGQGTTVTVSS VL: DIQLTQSPSFLSASVGDRVTITCKASQDVGTTVAWYQQKPGKAPKLLIYWASTRHTGVPSRFSGSGSGTEFTLTISSLQPEDFATYYCQQYSSYPYTFGQGTKLEIK has what recorded Mean fluorescence intensity?
10
